Test system Induced myeloid leukemia cell differentiation protein Mcl-1 (Homo sapiens), Ki listed for each of the compounds.
# value in nM; strip the unit string

get_value(item= Cc1cc(OCCCc2c(C(=O)NCCC(=O)O)[nH]c3ccccc23)cc(C)c1Cl , readout=Ki) returns 570

get_value(item= Cc1cc(OCCCc2c3n(c4c(-c5c(C)nn(C)c5C)cc(Cl)cc24)CCCN(c2cc(C(=O)O)c4ccn(C)c4c2)C3=O)cc(C)c1Cl , readout=Ki) returns 94

get_value(item= COC(=O)CNC(=O)c1[nH]c2ccccc2c1CCCOc1cc(C)c(Cl)c(C)c1 , readout=Ki) returns 3200

get_value(item= Cc1cc(OCCCc2c3n(c4c(-c5c(C)nn(C)c5C)cc(Cl)cc24)CCCN(c2cc(C(=O)O)cc4c2ccn4C)C3=O)cc(C)c1Cl , readout=Ki) returns 130

get_value(item= Cc1cc(OCCCc2c(C(=O)NCC(=O)O)[nH]c3ccccc23)cc(C)c1Cl , readout=Ki) returns 620

get_value(item= Cc1cc(OCCCc2c(C(=O)NCc3ccc(C(=O)O)o3)[nH]c3ccccc23)cc(C)c1Cl , readout=Ki) returns 69

---

Test system UniProt:P10415, Ki listed for each of the compounds.
Sequence (P10415 whole entry): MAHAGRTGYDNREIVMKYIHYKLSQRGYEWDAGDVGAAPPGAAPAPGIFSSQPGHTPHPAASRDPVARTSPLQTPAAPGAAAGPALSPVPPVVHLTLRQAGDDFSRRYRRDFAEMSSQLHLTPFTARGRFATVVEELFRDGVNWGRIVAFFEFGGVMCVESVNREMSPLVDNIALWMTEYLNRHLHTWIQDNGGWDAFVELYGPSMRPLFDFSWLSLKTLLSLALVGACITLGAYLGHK
# value in nM; strip the unit string

get_value(item= Cc1cc(OCCCc2c3n(c4c(-c5c(C)nn(C)c5C)c(Cl)ccc24)CCCN(c2ccc(C(=O)O)c4cccnc24)C3=O)cc(C)c1Cl , readout=Ki) returns 490

get_value(item= Cc1cc(OCCCc2c3n(c4c(-c5c(C)nn(C)c5C)c(Cl)ccc24)CCCN(c2cn(C)c4c(C(=O)O)cccc24)C3=O)cc(C)c1Cl , readout=Ki) returns 310

get_value(item= Cc1cc(OCCCc2c3n(c4c(-c5c(C)nn(C)c5C)c(Cl)ccc24)CCCN(c2cc(C(=O)O)c4ccn(C)c4c2)C3=O)cc(C)c1Cl , readout=Ki) returns 580

---

Would you mind telling me the reported GI50 at 72 h of each entry?
RUN DESCRIPTION: in vitro
MEASUREMENT CONTEXT: human, K562 cells
# value in µM; strip the unit string

get_value(item= Cc1cc(OCCCc2c3n(c4c(-c5c(C)nn(C)c5C)c(Cl)ccc24)CCCN(c2cn(C)c4cc(C(=O)O)ccc24)C3=O)cc(C)c1Cl , readout=GI50 at 72 h) returns 5.8

get_value(item= Cc1cc(OCCCc2c3n(c4c(-c5c(C)nn(C)c5C)cc(Cl)cc24)CCCN(c2cc(C(=O)O)c4ccn(C)c4c2)C3=O)cc(C)c1Cl , readout=GI50 at 72 h) returns 7.7

get_value(item= Cc1cc(OCCCc2c3n(c4c(-c5c(C)nn(C)c5C)c(Cl)ccc24)CCCN(c2ccc(C(=O)O)c4cccnc24)C3=O)cc(C)c1Cl , readout=GI50 at 72 h) returns 6.2

get_value(item= Cc1cc(OCCCc2c3n(c4c(-c5c(C)nn(C)c5C)cc(Cl)cc24)CCCN(c2cc(C(=O)O)cc4c2ccn4C)C3=O)cc(C)c1Cl , readout=GI50 at 72 h) returns 10

---

METRIC: Ki (µM)
# value in µM; strip the unit string

Per the reported Bcl-2-like protein 1 (Homo sapiens, UniProt Q07817) data, Cc1cc(OCCCc2c3n(c4c(-c5c(C)nn(C)c5C)c(Cl)ccc24)CCCN(c2cccc4c(C(=O)O)cccc24)C3=O)cc(C)c1Cl has Ki of 11

Per the reported Bcl-2-like protein 1 (Homo sapiens, UniProt Q07817) data, Cc1cc(OCCCc2c3n(c4c(-c5c(C)nn(C)c5C)c(Cl)ccc24)CCCN(c2cc(C(=O)O)c4ccn(C)c4c2)C3=O)cc(C)c1Cl has Ki of 19

---

RUN DESCRIPTION: in vitro
MEASUREMENT CONTEXT: human, K562 cells
METRIC: GI50 at 72 h

get_value(item= Cc1cc(OCCCc2c3n(c4c(-c5c(C)nn(C)c5C)c(Cl)ccc24)CCCN(c2cc(C(=O)O)cc4c2OCO4)C3=O)cc(C)c1Cl , readout=GI50 at 72 h) returns > 12.5 µM

get_value(item= Cc1cc(OCCCc2c3n(c4c(-c5c(C)nn(C)c5C)c(Cl)ccc24)CCCN(c2cc(C(=O)O)c4ccn(C)c4c2)C3=O)cc(C)c1Cl , readout=GI50 at 72 h) returns 11 to 11.5 µM

get_value(item= Cc1cc(OCCCc2c3n(c4c(-c5c(C)nn(C)c5C)c(Cl)ccc24)CCCN(c2ccc(C(=O)O)c4ccn(C)c24)C3=O)cc(C)c1Cl , readout=GI50 at 72 h) returns > 12.5 µM

get_value(item= Cc1cc(OCCCc2c3n(c4c(-c5c(C)nn(C)c5C)c(Cl)ccc24)CCCN(c2cccc4c(C(=O)O)cccc24)C3=O)cc(C)c1Cl , readout=GI50 at 72 h) returns 5.7 µM

---

RUN DESCRIPTION: physchem
MEASUREMENT CONTEXT: PAMPA
Description: Passive permeability of the compound by PAMPA
METRIC: Papp (×10⁻⁶ cm/s)
# value in ×10⁻⁶ cm/s; strip the unit string

get_value(item= Cc1cc(OCCCc2c(C(=O)Nc3ccc(C(=O)O)o3)[nH]c3c(-c4c(C)nn(C)c4C)c(Cl)ccc23)cc(C)c1Cl , readout=Papp) returns 2.3

get_value(item= Cc1cc(OCCCc2c3n(c4c(-c5c(C)nn(C)c5C)c(Cl)ccc24)CCCN(c2cc(C(=O)O)c4ccn(C)c4c2)C3=O)cc(C)c1Cl , readout=Papp) returns 21

get_value(item= Cc1cc(OCCCc2c3n(c4c(-c5c(C)nn(C)c5C)c(Cl)ccc24)CCCN(c2ccc(C(=O)O)c4ccn(C)c24)C3=O)cc(C)c1Cl , readout=Papp) returns 4.8

get_value(item= Cc1cc(OCCCc2c3n(c4c(-c5c(C)nn(C)c5C)c(Cl)ccc24)CCCN(c2ccc(C(=O)O)c4cccnc24)C3=O)cc(C)c1Cl , readout=Papp) returns 122

---

RUN DESCRIPTION: in vitro
MEASUREMENT CONTEXT: human, K562 cells
METRIC: GI50 at 72 h

get_value(item= Cc1cc(OCCCc2c3n(c4c(-c5c(C)nn(C)c5C)c(Cl)ccc24)CCCN(c2cn(C)c4ccc(C(=O)O)cc24)C3=O)cc(C)c1Cl , readout=GI50 at 72 h) returns > 12.5 µM

get_value(item= Cc1cc(OCCCc2c3n(c4c(-c5c(C)nn(C)c5C)c(Cl)ccc24)CCCN(c2cn(C)c4c(C(=O)O)cccc24)C3=O)cc(C)c1Cl , readout=GI50 at 72 h) returns > 9.2 µM

get_value(item= Cc1cc(OCCCc2c3n(c4c(-c5c(C)nn(C)c5C)c(Cl)ccc24)CCCN(c2cc(C(=O)O)cc4ccn(C)c24)C3=O)cc(C)c1Cl , readout=GI50 at 72 h) returns > 12.5 µM

---

RUN DESCRIPTION: physchem
MEASUREMENT CONTEXT: PAMPA
Would you mind telling me the reported Papp of each entry?

get_value(item= Cc1cc(OCCCc2c(C(=O)Nc3cc(C(=O)O)ccn3)[nH]c3c(-c4c(C)nn(C)c4C)c(Cl)ccc23)cc(C)c1Cl , readout=Papp) returns < 3.3 ×10⁻⁶ cm/s

get_value(item= Cc1cc(OCCCc2c(C(=O)NCc3cccc(C(=O)O)c3)[nH]c3c(-c4c(C)nn(C)c4C)c(Cl)ccc23)cc(C)c1Cl , readout=Papp) returns < 7.6 ×10⁻⁶ cm/s

get_value(item= Cc1cc(OCCCc2c(C(=O)Nc3ccc(C(=O)O)cn3)[nH]c3c(-c4c(C)nn(C)c4C)c(Cl)ccc23)cc(C)c1Cl , readout=Papp) returns < 2.3 ×10⁻⁶ cm/s

get_value(item= Cc1cc(OCCCc2c(C(=O)Nc3cncc(C(=O)O)c3)[nH]c3c(-c4c(C)nn(C)c4C)c(Cl)ccc23)cc(C)c1Cl , readout=Papp) returns < 1 ×10⁻⁶ cm/s

Measured values drawn from ChEMBL document CHEMBL4020825 for this set.
